# Measurement notes: Pharmacokinetics after intravenous and oral administration in rats
# Type: in vivo
# Experimental conditions: rat, plasma, iv dosing, dose 1 mg/kg
Measured attribute: half-life (min)
// return numeric value only (unit: min, not printed)

// below: answered compounds
>>> assay_value("CC(CS(=O)(=O)N[C@H]1COC2C1OC[C@H]2Nc1nc(Nc2cnn(C)c2)ncc1Cl)C(F)F (stereo partly shown)")
46.2
>>> assay_value("Cn1cc(Nc2ncc(Cl)c(N[C@@H]3COC4C3OC[C@@H]4NS(=O)(=O)CC(C)(F)F)n2)cn1 (stereo partly shown)")
32.4
>>> assay_value("Cn1cc(Nc2ncc(Cl)c(N[C@@H]3COC4C3OC[C@@H]4NS(=O)(=O)N3CCOCC3)n2)cn1 (stereo partly shown)")
335
>>> assay_value("Cn1cc(Nc2ncc(Cl)c(N[C@H]3COC4C3OC[C@H]4NS(=O)(=O)CC(F)(F)F)n2)cn1 (stereo partly shown)")
108

Which half-life is reported for this compound? Cn1cc(Nc2ncc(Cl)c(N[C@@H]3COC4C3OC[C@@H]4NS(=O)(=O)c3ccc(F)cc3)n2)cn1 (stereo partly shown) 37.2

Repeat for the following compound: Cn1cc(Nc2ncc(Cl)c(N[C@@H]3COC4C3OC[C@@H]4N3CCOC3=O)n2)cn1 (stereo partly shown) 636

Repeat for the following compound: Cn1cc(Nc2ncc(Cl)c(N[C@@H]3COC4C3OC[C@@H]4NS(=O)(=O)CC(C)(C)O)n2)cn1 (stereo partly shown) 49.2

Repeat for the following compound: Cn1cc(Nc2ncc(Cl)c(N[C@@H]3COC4C3OC[C@@H]4NS(=O)(=O)C3CCCC3)n2)cn1 (stereo partly shown) 54

Repeat for the following compound: Cn1cc(Nc2ncc(Cl)c(N[C@@H]3COC4C3OC[C@@H]4N3CCCS3(=O)=O)n2)cn1 (stereo partly shown) 40.2

Repeat for the following compound: Cn1cc(Nc2ncc(Cl)c(N[C@@H]3COC4C3OC[C@@H]4NS(=O)(=O)CC(C)(C)C)n2)cn1 (stereo partly shown) 37.8
